- Tested on: P. falciparum Dd2 (multidrug-resistant) erythrocytic stages
- assayOverview: In vitro drug sensitivity assay (HRP2-ELISA) against erythrocytic stages, PfDd2
- Format: cell-based
- conditionLabel: Plasmodium falciparum, DD2, 72 h, read-out: IC50 PfDd2
quantityName: pIC50
// pIC50 is dimensionless: -log10 of concentration (M)

IN: Return value of pIC50 for input CCN(CC)CCCC(C)Nc1ccnc2cc(Cl)ccc12 (centres unmarked) [CQ, chloroquine, reference compound] , no commentary.
OUT: 6.54

----------
Items are presented alongside their recorded SI (HCT116).
- Tested on: HCT116 (colorectal carcinoma)
- assayOverview: MTT cytotoxicity assay, HCT116
- Assay type: cell-based, human
- conditionLabel: selectivity index: ratio of IC50 Hek293T to IC50 HCT116

Known results for molecules:
Cc1nc(CNC(=O)C[c-]2cccc2)cc2c1[nH]c1ccccc12.[Fe+2].c1cc[cH-]c1 : >2.4
Cc1nccc2c1[nH]c1ccc(OCc3cn(C[c-]4cccc4)nn3)cc12.[Fe+2].c1cc[cH-]c1 : < 0.9
Cc1nc(-c2cn(C[c-]3cccc3)nn2)cc2c1[nH]c1ccccc12.[Fe+2].c1cc[cH-]c1 : 1.3
Cc1nccc2c1[nH]c1cc(OCc3cn(C[c-]4cccc4)nn3)ccc12.[Fe+2].c1cc[cH-]c1 : >6.8
Cc1nccc2c1[nH]c1cc(OCCNC(=O)C[c-]3cccc3)ccc12.[Fe+2].c1cc[cH-]c1 : 1.4
[Fe+2].c1cc[cH-]c1.c1ccc2c(c1)[nH]c1c(Cn3cc(-[c-]4cccc4)nn3)nccc12 : >1.7

// below: SI (HCT116) requested for another molecule
IN: Return value of SI (HCT116) for input `O=C(NCc1nccc2c1[nH]c1ccccc12)[c-]1cccc1.[Fe+2].c1cc[cH-]c1` , no commentary.
OUT: >3

----------
Items are presented alongside their recorded pIC50.
- System: HepG2 (hepatocellular carcinoma)
- assayOverview: MTT cytotoxicity assay, HepG2
- Type: cell-based, human
- conditionLabel: 72 h, MTT; mean ± SD; read-out: IC50 HepG2
// pIC50 is dimensionless: -log10 of concentration (M)

Known results for molecules:
Cc1nccc2c1[nH]c1ccc(OCCn3cc(-[c-]4cccc4)nn3)cc12.[Fe+2].c1cc[cH-]c1 : 5.08
Cc1nccc2c1[nH]c1cc(OCCNC(=O)[c-]3cccc3)ccc12.[Fe+2].c1cc[cH-]c1 : 4.81
Cc1nc(-c2cn(C[c-]3cccc3)nn2)cc2c1[nH]c1ccccc12.[Fe+2].c1cc[cH-]c1 : 4.91

// below: pIC50 requested for another molecule
IN: Return value of pIC50 for input `Cc1nccc2c1[nH]c1ccc(OCc3cn(C[c-]4cccc4)nn3)cc12.[Fe+2].c1cc[cH-]c1` , no commentary.
OUT: 4.77

----------
- System: SW620 (colorectal adenocarcinoma)
- assayOverview: MTT cytotoxicity assay, SW620
- Format: cell-based, human
- conditionLabel: 72 h, MTT; mean ± SD; read-out: IC50 SW620
Could you please mark yes (1) for values of IC50 below 10 µM and no (0) for values at or above it?

Use the examples below as a reference point.
[Fe+2].c1cc[cH-]c1.c1ccc2c(c1)[nH]c1c(Cn3cc(-[c-]4cccc4)nn3)nccc12 : no (0)
Cc1nc(CNC(=O)[c-]2cccc2)cc2c1[nH]c1ccccc12.[Fe+2].c1cc[cH-]c1 : no (0)
Cc1nccc2c1[nH]c1ccc(OCc3cn(C[c-]4cccc4)nn3)cc12.[Fe+2].c1cc[cH-]c1 : yes (1)

IN: Lab note: confirm whether the reported IC50 for this compound is below 10 µM, equality not counting. compound: `O=C(NCc1nccc2c1[nH]c1ccccc12)[c-]1cccc1.[Fe+2].c1cc[cH-]c1`
OUT: no (0)

IN: Lab note: confirm whether the reported IC50 for this compound is below 10 µM, equality not counting. compound: `Cc1nccc2c1[nH]c1cc(OCCNC(=O)C[c-]3cccc3)ccc12.[Fe+2].c1cc[cH-]c1`
OUT: yes (1)

IN: Lab note: confirm whether the reported IC50 for this compound is below 10 µM, equality not counting. compound: `Cc1nc(Cn2cc(-[c-]3cccc3)nn2)cc2c1[nH]c1ccccc12.[Fe+2].c1cc[cH-]c1`
OUT: no (0)

IN: Lab note: confirm whether the reported IC50 for this compound is below 10 µM, equality not counting. compound: `Cc1nc(-c2cn(C[c-]3cccc3)nn2)cc2c1[nH]c1ccccc12.[Fe+2].c1cc[cH-]c1`
OUT: yes (1)

IN: Lab note: confirm whether the reported IC50 for this compound is below 10 µM, equality not counting. compound: `Cc1nccc2c1[nH]c1cc(OCCn3cc(-[c-]4cccc4)nn3)ccc12.[Fe+2].c1cc[cH-]c1`
OUT: yes (1)

IN: Lab note: confirm whether the reported IC50 for this compound is below 10 µM, equality not counting. compound: `COc1ccc2c3ccnc(C)c3n(CCNC(=O)[c-]3cccc3)c2c1.[Fe+2].c1cc[cH-]c1`
OUT: no (0)

IN: Lab note: confirm whether the reported IC50 for this compound is below 10 µM, equality not counting. compound: `COc1ccc2c3ccnc(C)c3n(CCn3cc(-[c-]4cccc4)nn3)c2c1.[Fe+2].c1cc[cH-]c1`
OUT: no (0)

IN: Lab note: confirm whether the reported IC50 for this compound is below 10 µM, equality not counting. compound: `O=C(C[c-]1cccc1)NCc1nccc2c1[nH]c1ccccc12.[Fe+2].c1cc[cH-]c1`
OUT: no (0)

IN: Lab note: confirm whether the reported IC50 for this compound is below 10 µM, equality not counting. compound: `Cc1nccc2c1[nH]c1ccc(OCCn3cc(-[c-]4cccc4)nn3)cc12.[Fe+2].c1cc[cH-]c1`
OUT: yes (1)

IN: Lab note: confirm whether the reported IC50 for this compound is below 10 µM, equality not counting. compound: `Cc1nccc2c1[nH]c1cc(OCc3cn(C[c-]4cccc4)nn3)ccc12.[Fe+2].c1cc[cH-]c1`
OUT: no (0)

IN: Lab note: confirm whether the reported IC50 for this compound is below 10 µM, equality not counting. compound: `[Fe+2].c1cc[cH-]c1.c1ccc2c(c1)[nH]c1c(-c3cn(C[c-]4cccc4)nn3)nccc12`
OUT: no (0)

IN: Lab note: confirm whether the reported IC50 for this compound is below 10 µM, equality not counting. compound: `Cc1nc(CNC(=O)C[c-]2cccc2)cc2c1[nH]c1ccccc12.[Fe+2].c1cc[cH-]c1`
OUT: no (0)
